Listed below: MFI values for each entry.
# TGT: T1, human CXCR4 (chemokine (C-X-C motif) receptor 4) (human, UniProt P61073 1-352)
# T1 construct: Endogenous on human tumour cell lines (Ramos, HPB-ALL, Raji, Jurkat, MM1.S, RPMI-8226, MOLP-8, MOLT-4) or transfected into CHO-K1 cells (DiscoveRx); also called CXCR4 receptor
# PROTOCOL TEXT: flow cytometry on HPB-ALL cells, Fab at 0.25 µg/mL
ENDPOINT LABEL: MFI

INSERT INTO assay_data (binder, observed) VALUES
  ('h3G10.1.91 VH / h3G10.A58A VL Fab (Fab, V domains shown, Tested as Fab) VH: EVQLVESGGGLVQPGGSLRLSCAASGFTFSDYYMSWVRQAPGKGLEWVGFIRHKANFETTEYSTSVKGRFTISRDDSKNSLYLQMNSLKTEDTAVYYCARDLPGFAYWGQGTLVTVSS VL: DIVMTQSPDSLAVSLGERATINCKSSQSLFNSHTRKNYLAWYQQKPGQPPKLLIYWASARGSGVPDRFSGSGSGTDFTLTISSLQAEDVAVYYCKQSFRLRTFGGGTKVEIK', 5050),
  ('h3G10.A57 VH / h3G10.A58B VL Fab (Fab, V domains shown, Tested as Fab) VH: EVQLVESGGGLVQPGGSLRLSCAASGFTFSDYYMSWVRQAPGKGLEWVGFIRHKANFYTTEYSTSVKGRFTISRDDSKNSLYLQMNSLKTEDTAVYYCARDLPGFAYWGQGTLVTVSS VL: DIVMTQSPDSLAVSLGERATINCKSSQSLFNSHTRKNYLAWYQQKPGQPPKLLIYWASARGSGVPDRFSGSGSGTDFTLTISSLQAEDVAVYYCKQSFNLRTFGGGTKVEIK', 3090),
  ('h3G10.A57 VH / h3G10 VL Fab (Fab, V domains shown, Tested as Fab; also called h3G10.A57 VH / h3G10 L) VH: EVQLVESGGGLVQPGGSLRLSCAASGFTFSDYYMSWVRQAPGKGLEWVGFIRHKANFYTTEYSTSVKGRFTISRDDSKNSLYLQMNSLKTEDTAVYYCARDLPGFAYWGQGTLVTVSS VL: DIVMTQSPDSLAVSLGERATINCKSSQSLFNSRTRKNYLAWYQQKPGQPPKLLIYWASARESGVPDRFSGSGSGTDFTLTISSLQAEDVAVYYCKQSFNLRTFGGGTKVEIK', 1340);
